System: Streptococcus pneumoniae ATCC 49619
assay_summary: Broth microdilution MIC, S. pneumoniae ATCC 49619
Type: cell-based
run_parameters: ATCC49619, broth microdilution, 37° C., 20 hours, read-out: MIC S. pneumoniae ATCC 49619
metric: MIC (µg/mL)

# annotated cases, reported MIC shown
{"columns": ["molecule", "unit_descriptor", "MIC"],
 "data": [
  ["O=C(NCCn1ncc2nc(NCc3ccc(Cl)c(Cl)c3)[nH]c(=O)c21)c1cc(O)nnc1Cl", "µg/mL", 16],
  ["O=c1[nH]c(NCc2ccc(Cl)c(Cl)c2)nc2cnn(C3COC3)c12", "µg/mL", 4],
  ["Cn1ncc2nc(NCc3ccc(F)c(Cl)c3)[nH]c(=O)c21", "µg/mL", 4],
  ["O=c1[nH]c(NCc2ccc(Cl)c(Cl)c2)nc2cnn(CCOCCOCCOCCO)c12", "µg/mL", 8],
  ["O=C1CCCN1CCn1ncc2nc(NCc3ccc(Cl)c(Cl)c3)[nH]c(=O)c21", "µg/mL", 4]
]}

I: CC(CO)n1cc2nc(NCc3ccc(Cl)c(Cl)c3)[nH]c(=O)c2n1 (stereo not shown)
II: O=c1[nH]c(NCc2ccc(Cl)c(Cl)c2)nc2c(Cl)nn(Cc3cocn3)c12
III: O=C(c1cocn1)N1CCC(n2ncc3nc(NCc4ccc(Cl)c(Cl)c4)[nH]c(=O)c32)CC1
IV: COCc1nnc(CCn2ncc3nc(NCc4ccc(Cl)c(Cl)c4)[nH]c(=O)c32)o1.Cl
Please list the entries, largest MIC first. Write the labels in rank order as requested.
I, IV, II, III

1: O=c1[nH]c(NCc2ccc(Cl)c(Cl)c2)nc2cnn(C3CCNCC3)c12
2: O=C(c1cccnc1)N1CCC(n2nc(Cl)c3nc(NCc4ccc(Cl)c(Cl)c4)[nH]c(=O)c32)CC1
3: O=c1[nH]c(NCc2ccc(F)c(F)c2)nc2c(Cl)nn(CCOCCO)c12
4: Cn1nc(C#N)c2nc(NCc3ccc(Cl)c(Cl)c3)[nH]c(=O)c21
Put these in order: smallest MIC first, largest last. Write the labels in rank order as requested.
1, 2, 3, 4
(1: 2 µg/mL, 2: 4 µg/mL, 3: 8 µg/mL, 4: 16 µg/mL)

1: CC(=O)N1CCC(Cn2ncc3nc(NCc4ccc(Cl)c(Cl)c4)[nH]c(=O)c32)C1 (stereo not shown)
2: Cl.O=c1[nH]c(NCc2ccc(Cl)c(Cl)c2)nc2cnn(CCOCCN3CCOCC3)c12
Could you tell me which of these two has the smaller MIC figure? First: 1 Second: 2 The response must carry the label of the picked entry.
1
